Experiment: HepG2 cytotoxicity, primary screen, cytotoxicity control for P. falciparum antimalarial project, cell-based, ATP luminescence (AID 2303);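 note: 0% = DMSO wells and 100% = digitonin-killed cells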
Details: HepG2 viability, 24-48 h, at 10 µM, active compounds read high
readout.label: inhibition (%)
Numbers only, in %.

These solved cases illustrate the format of a correct answer.
1. NS(=O)(=O)c1cccc(Nc2nccc(-c3c(-c4cccc(NC(=O)c5c(F)cccc5F)c4)nn4ccccc34)n2)c1
81
2. Cc1ccccc1Cc1cccc(/N=C(\N)Nc2ccc(Cl)cc2)n1
48

Parameter requested: inhibition. Apply to each item below.
1. O=C(Nc1ccc(C(F)(F)F)cc1)c1cc(Cl)cc2[nH]c(C(F)(F)F)nc12
2. Cc1cc(N[C@@H](Cc2ccccc2)C(=O)Nc2ccccc2)nc(NCC2CCCCC2)n1

Result string:
1: 86; 2: 12

Parameter requested: inhibition. Apply to each item below.
1. CN(C)Cc1ccc(-c2ccc(NC(=O)c3ccc4c(=O)n(Cc5ccccc5)cnc4c3)cc2)cc1
2. CC(C)C(C(=O)n1cc2c(ccc3nc(N)nc(N)c32)n1)C(C)C
3. CCCN1CCN(CCNc2c3ccccc3nc3ccccc23)CC1
4. COc1ccc2nccc([C@@H](O)CN3CCC(NC(=O)c4ccc(C5(C(F)(F)F)N=N5)cc4)CC3)c2c1
5. Nc1ncc(-c2cn[nH]c2)cc1-c1nc2ccc(Cl)cc2[nH]1
6. Cc1nnsc1C(=O)Nc1cccc(-c2cccc(-c3nc4ccc(C(F)(F)F)cc4[nH]3)c2)c1

Result string:
94
58
13
8
46
70

Parameter requested: inhibition. Apply to each item below.
1. CN(CCN1CCC(c2c[nH]c3ccccc23)CC1)c1ccc(-c2nc3cc(Cl)c(Cl)cc3[nH]2)cc1
2. CC(C)(Oc1c(C2CCN(CCCCNC(=O)c3ccc(-c4ccc(Cl)cc4)cc3)CC2)ccc2c1CCCC2)C(N)=O
3. CCN(CC)CCN(Cc1ccc(-c2ccc(C(F)(F)F)cc2)cc1)C(=O)c1ccc(-c2ccc(C#N)cc2)cc1
4. CCCCN1CC[C@@H](CCC(O)c2cc(OCCC)nc3ccc(OC)cc23)[C@@H](CC)C1 (some centres undefined)
5. COc1cc(-c2nc(C(C)(C)CN)[nH]c2-c2ccncc2)ccc1Br
6. COc1ccc2nc(C)cc(Nc3ccc(N4CCN(C)CC4)cc3)c2c1

Result string:
1: 22; 2: 100; 3: 38; 4: 23; 5: 17; 6: 1

Parameter requested: inhibition. Apply to each item below.
1. O=C(c1ccco1)N1CCN(c2ccc([N+](=O)[O-])c(NC3CC3)c2)CC1
2. CCN(CC)CCOc1ccc(Nc2ncc3cc(-c4c(Cl)cccc4Cl)c(=O)n(C)c3n2)cc1
3. Cc1cc(-c2cccc(CNC3CCN(C)CC3)c2)ccc1S(=O)(=O)NCCc1ccccn1

Result string:
1. -8
2. 72
3. 22

###

Experiment: liver-stage malaria parasite growth inhibition, primary screen, cell-based, HepG2, luciferase luminescence, HepG2 viability (AID 624349);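 note: 100% = mean of DMSO negative control wells on the same plate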
Settings: P. berghei liver stage in HepG2, luciferase luminescence, concentration not given here; active compounds read low
Non-standard residues stand in square brackets, D forms with d. Square brackets hold non-standard residues; d marks the D form. Residues, ends and D or L forms follow the SMILES beside them. Peptide text beside a SMILES is read from it. pGlu = O=C1CC[C@@H](C(=O)O)N1; Thz = O=C(O)[C@@H]1CSCN1; Orn = NCCC[CH](N)C(=O)O
Mark Criterion met only for parasite load remaining values smaller than 60%; exact matches and larger values are Criterion not met.

# example entries with known answers
1. CC(C)(CO)C(O)C(=O)NCCCO (stereo unspecified)
Criterion met
2. Nc1nc(F)nc2c1ncn2[C@@H]1O[C@H](COP(=O)(O)O)[C@@H](O)[C@@H]1O
Criterion met
3. CC(C)CC1NC(=O)C(CCCN)NC(=O)C(C(C)C)NC(=O)C2CCCN2C(=O)C(Cc2ccccc2)NC(=O)C(CC(C)C)NC(=O)C(CCCN)NC(=O)C(C(C)C)NC(=O)C2CCCN2C(=O)C(Cc2ccccc2)NC1=O (stereo unspecified) (cyclo(FPV[Orn]LFPV[Orn]L); configuration not given here)
Criterion met
4. C=CC1=C(C(=O)O)N2C(=O)[C@@H](NC(=O)C(=NO)c3csc(N)n3)[C@H]2SC1
Criterion met

Query string: Threshold test, parasite load remaining < 60%: CC(C)CC(NC(=O)C(COC(C)(C)C)NC(=O)C(Cc1ccc(O)cc1)NC(=O)C(CO)NC(=O)C(Cc1c[nH]c2ccccc12)NC(=O)C(Cc1cnc[nH]1)NC(=O)C1CCC(=O)N1)C(=O)N[C@@H](CCCN=C(N)N)C(=O)N1CCCC1C(=O)NNC(N)=O (stereo partly specified)
Result string: Criterion not met

Query string: Threshold test, parasite load remaining < 60%: O=C1CC[C@@H](C(=O)N2CSC[C@H]2C(=O)O)N1 ([pGlu]-[Thz]-OH)
Result string: Criterion not met

###

Target: Plasmodium falciparum protein kinase 6 (PK6, PF3D7_1337100)
Assay: PfPK6 kinase inhibitors, biochemical, TCAMS library (AID 1159586)
Conditions: recombinant PfPK6, Kinase-Glo ATP depletion luminescence
Entries with a potency or affinity are not part of this list. Activity calls are given as the source filed them. How the calls were made is not given here.
readout.label: outcome

These solved cases illustrate the format of a correct answer.
1. O=C(N[C@H]1CCN(Cc2ccc(OCCN3CCNCC3)c(Cl)c2)C1)c1ccc(Cl)c(Cl)c1
inactive
2. O=C(NC1CC1)c1ccc(Nc2nccc(-c3c(-c4cccc(NC(=O)c5c(F)cccc5F)c4)nn4ccccc34)n2)cc1
inactive
3. CCCCCOc1ccc(N2C(N)=NC(N)=NC2(C)C)cc1
inactive
4. c1ccc2c(c1)cc(CNCCCN1CCN(CCCNCc3cc4ccccc4c4ccccc34)CC1)c1ccccc12
inactive
5. CCCNC(=O)c1cncc(-c2ccc(CNC(CC)c3ccccc3)cc2)c1 (centres undefined)
inactive

Parameter requested: outcome. Apply to each item below.
1. Cc1nnsc1C(=O)Nc1cccc(-c2cccc(-c3nc4ccc(C(F)(F)F)cc4[nH]3)c2)c1
2. COc1ccc(OC)c(CC2c3ccc(Br)c(O)c3CCN2C)c1 (centres undefined)
3. CC(=O)N(C)c1cccc(C(=O)Nc2cccc(-c3ccc(-c4nc5ccc(C(F)(F)F)cc5[nH]4)cc3)c2)c1
4. Cc1[nH]c(C)c(-c2ccc(Oc3ccc(F)cc3)cc2)c(=O)c1Br

Result string:
["inactive", "inactive", "inactive", "inactive"]

###

Experiment: inhibitors of Cryptococcus chitosan production, flow cytometry, Cibacron Brilliant Red staining (AID 1347148);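 note: compound exposure lasted three days at 37 degrees C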
Settings: Cryptococcus neoformans chitosan, active compounds read low; at 10 µM unless noted
Activity calls are given as the source filed them. How the calls were made is not given here.
readout.label: fold fluorescence

These solved cases illustrate the format of a correct answer.
1. CC(C)(C)c1cc(O)c(C(C)(C)C)cc1O
11.1 [at 224.9 µM] (inactive)
2. O=C(O)c1ccccc1Nc1ccccc1
3.75 [at 234.5 µM] (inactive)
3. O=C(NCCCCCCNC(=O)ON=C1CCCCC1)ON=C1CCCCC1
7.89 [at 126.7 µM] (inactive)

Parameter requested: fold fluorescence. Apply to each item below.
1. N#CC(=C(/N)Sc1ccccc1N)/C(C#N)=C(\N)Sc1ccccc1N
2. O=C1CCc2c(ccc3ccccc23)O1
3. COc1ccc(CCN(C)CCc2ccc(OC)c(OC)c2)cc1OC
4. O=c1[nH]c2ccccc2c2ccccc12

Result string:
1. 5.14 [at 131.4 µM] (inactive)
2. 3.79 [at 252.2 µM] (inactive)
3. 2.96 [at 139.1 µM] (inactive)
4. 3.09 [at 256.1 µM] (inactive)

###

Record form. Attribute: viability. Fill in for each entry.
Test: ovarian cancer cell viability with rucaparib, profiling panel, oncology-focused library, rucaparib conditional (AID 1508598)
Settings: patient-derived ovarian cancer cells, CellTiter-Glo viability, 144 h; at 5 µM; OCI-C5x cells; without rucaparib; active compounds read low
One number for each entry, in %.

1. Nc1nc(Cl)nc2c1ncn2[C@H]1C[C@H](O)[C@@H](CO)O1
54.1
2. O=c1cc(N2CCOCC2)oc2c(-c3ccccc3)cccc12
107
3. O=c1[nH]c(-c2ccc(C(F)(F)F)cc2)nc2c1CSCC2
112
4. CS(=O)c1ccc(-c2nc(-c3ccc(F)cc3)c(-c3ccncc3)[nH]2)cc1 (configuration not stated)
161

Parameter requested: viability. Apply to each item below.
1. CC(NC(=O)c1ccccc1N=Cc1c(O)ccc2ccccc12)c1ccccc1 (configuration not stated)
2. Cn1cc(C2=C(c3ccc(Cl)cc3Cl)C(=O)NC2=O)c2ccccc21
3. C[C@H](NC(=O)Cc1cc(F)cc(F)c1)C(=O)N[C@H](C(=O)OC(C)(C)C)c1ccccc1
4. CC(C)c1onc(-c2c(Cl)cccc2Cl)c1COc1ccc(/C=C/c2cccc(C(=O)O)c2)c(Cl)c1

Result string:
1: 143; 2: 120; 3: 120; 4: 89.5

Parameter requested: viability. Apply to each item below.
1. CN(C)CCCn1cc(C2=C(c3c[nH]c4ccccc34)C(=O)NC2=O)c2ccccc21
2. C[C@@H](N)C1CCC(C(=O)Nc2ccncc2)CC1 (some centres not stated)
3. Nc1nc(F)nc2c1ncn2[C@@H]1O[C@H](COP(=O)(O)O)[C@@H](O)[C@@H]1O
4. O=C(O)c1ccc(-c2c[nH]c3ncc(-c4ccccc4)cc23)cc1C1CCCC1

Result string:
1. 146
2. 107
3. 59.8
4. 60.5

The values you see were collected from PubChem BioAssay.
